Biological target: human A3 AR (Homo sapiens, UniProt P0DMS8)
Construct: expressed in transfected cells; membranes
Sequence (P0DMS8 whole entry): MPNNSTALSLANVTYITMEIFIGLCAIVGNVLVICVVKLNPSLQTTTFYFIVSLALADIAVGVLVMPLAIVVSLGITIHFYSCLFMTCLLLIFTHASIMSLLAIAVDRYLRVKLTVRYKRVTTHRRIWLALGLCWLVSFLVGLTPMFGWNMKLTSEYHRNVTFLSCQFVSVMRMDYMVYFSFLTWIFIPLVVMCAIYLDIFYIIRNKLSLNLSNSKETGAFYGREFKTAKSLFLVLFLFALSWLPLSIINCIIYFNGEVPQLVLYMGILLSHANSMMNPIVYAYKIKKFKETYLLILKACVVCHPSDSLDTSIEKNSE
Test: Radioligand competition binding with 125I-ABA, membranes of HEK 293 cells stably expressing the receptor
Conditions: Ki derived from IC50, class symbols
Method: Cell culture and membrane preparation. Sf9 cells were cultured in Grace's medium supplemented with 10% fetal bovine serum, 2.5 μg/ml amphotericin B and 50 μg/ml gentamycin in an atmosphere of 50% N2/50% O2. Viral infection was performed at a density of 2.5×10^6 cells/mL with a multiplicity of infection of two for each virus used. […] Radioligand Binding Assays. […] Nonspecific binding was measured in the presence of 50 μM NECA. […]
pKi: −log10 of the molar value.
value.kind: pKi

Some compounds with known pKi results, for comparison:
Nc1nc(C#CCC2CCN(C(=O)Oc3ccc(Br)cc3Br)CC2)nc2c1ncn2[C@@H]1O[C@H](C(=O)NC2CC2)C(O)[C@@H]1O (stereo partly drawn) ... > 7.00
CCNC(=O)[C@H]1O[C@@H](n2cnc3c(N)nc(C#CCC4CCN(C(=O)Oc5ccc(C)cc5)CC4)nc32)[C@@H](O)C1O (stereo partly drawn) ... > 8.00

Next compound, please.
stdin: I'd like to know its pKi. The compound in question is CCNC(=O)[C@H]1O[C@@H](n2cnc3c(N)nc(C#CCC4CCN(C(=O)Oc5ccc(Cl)cc5)CC4)nc32)[C@@H](O)C1O (stereo partly drawn)
stdout: > 8.00

###

What pKi was measured for each of the following?
target: recombinant human A2A receptors (Homo sapiens); construct: expressed in transfected cells; host or cells: Sf9 insect cells infected with virus; membranes; assay: Radioligand competition binding with 125I-APE or 125I-ZM241385, Sf9 cell membranes; conditions: 125I-APE or 125I-ZM241385, Sf9 membranes; class symbols
Sequence (P29274 whole entry): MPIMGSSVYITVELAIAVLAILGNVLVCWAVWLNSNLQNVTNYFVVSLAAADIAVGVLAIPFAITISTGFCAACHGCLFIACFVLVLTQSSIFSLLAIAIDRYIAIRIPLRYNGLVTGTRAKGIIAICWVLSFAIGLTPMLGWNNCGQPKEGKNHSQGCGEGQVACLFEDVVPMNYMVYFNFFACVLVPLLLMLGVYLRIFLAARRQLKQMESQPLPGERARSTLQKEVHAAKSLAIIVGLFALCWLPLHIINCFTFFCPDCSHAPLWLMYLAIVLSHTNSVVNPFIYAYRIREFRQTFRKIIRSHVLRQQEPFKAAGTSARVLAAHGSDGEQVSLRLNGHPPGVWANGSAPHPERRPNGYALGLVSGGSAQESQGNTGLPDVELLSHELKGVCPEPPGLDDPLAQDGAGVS
pKi: −log10 of the molar value.

Some compounds with known pKi results, for comparison:
N=C(Oc1ccc(Cl)cc1)N1CCC(CC#Cc2nc(N)c3ncn([C@@H]4O[C@H](C(=O)NC5CC5)[C@@H](O)[C@H]4O)c3n2)CC1 [Compound 42] ... > 8.00
Nc1nc(C#CCC2CCN(C(=O)OCc3ccc([N+](=O)[O-])cc3)CC2)nc2c1ncn2[C@@H]1O[C@H](C(=O)NC2CC2)C(O)[C@@H]1O (stereo partly drawn) [Compound 18] ... > 9.00

stdin: Form field: pKi recorded for CCNC(=O)[C@H]1O[C@@H](n2cnc3c(N)nc(C#CCC4CCN(C(=O)Oc5ccc(C(=O)OC)cc5)CC4)nc32)[C@@H](O)C1O (stereo partly drawn) [Compound 25] with recombinant human A2A receptors (Homo sapiens) (enter value)
stdout: > 8.00
